Exercise: state measured apparent KD of MS2 coat protein for each of the sequences provided.
- System: MS2 coat protein
- test_description: apparent KD of MS2 coat protein; designed switch direction (-1 OFF switch, 1 ON switch): -1; higher = weaker reporter binding
- assay_setup: input ligand: microRNA oligo, concentration not stated
Lab book: enter the figure in nM, no units written.

Enquiry: Need apparent KD of MS2 coat protein of GCAGCUUAGUUAACAGACUGUUACAUGAGGAUCACCCAUGUGCAGGAUAUGGUCUGGAUUACAGGCCAGAAGGGUACAGGCUGC [Eli exng3 - 017] (Eterna round: R96, puzzle: Exclusion NG 3) , thanks.
Return: 6.6

Enquiry: Need apparent KD of MS2 coat protein of CUGCUCCGUGUAGGAUAUGCGCGCACCCACCGCGCAGAAGGACAUGAGGAUCACCCAUGUAUGUUAUUAUCACGUGAGGCGCGG [Design 36] (Eterna round: R96, puzzle: Exclusion NG 1) , thanks.
Return: 17.7

Enquiry: Need apparent KD of MS2 coat protein of UUGAUGUCAUCAGGAUAUAGUAUUUAAGACAUAUCUUCUUUCAAACAUGAGGAUCACCCAUGUCGCUAGAAGGGAUGAUUGAUU [JR_ExcNG2_Sub084] (Eterna round: R96, puzzle: Exclusion NG 2) , thanks.
Return: 11.9

Enquiry: Need apparent KD of MS2 coat protein of AAGGGUGCUUUCAGAACGACAUGAGGAUCACCCAUGUAGACUGAGGAUAUCUACUCCUAAGGACGGGAGAAGGCAGUGUAAUGC [Ex NG3 #65] (Eterna round: R96, puzzle: Exclusion NG 3) , thanks.
Return: 14.2

Enquiry: Need apparent KD of MS2 coat protein of UUAUUAUAUGUAGGAUAUGCAUAUUGUUGUUAUGCAGAAGGACAUGAGGAUCACCCAUGUAUAUUAUUGUUAUGUAUUAUAUAU [Title] (Eterna round: R96, puzzle: Exclusion NG 1) , thanks.
Return: 23.3

Enquiry: Need apparent KD of MS2 coat protein of AGAUCUAUCACGAAAGUGAUAGAUCAAAUUAGUUUUUAAACAUGAGGAUCACCCAUGUCCUAGUGGGCUAGUCUUAU [Mat - Sensor v2 - var 2 - Mod - D135] (Eterna round: R96, puzzle: Sensor v2, turn-off variant 2) , thanks.
Return: 167

Enquiry: Need apparent KD of MS2 coat protein of UUCGUGCAGCUUUGCUGUACGCGUACAUGAGGAUCACCCAUGUAGGAUAUGGUAGGCUUUGCUUACUAGAAGGAUAUUGUGAUC [JL EXNG3 1.32] (Eterna round: R96, puzzle: Exclusion NG 3) , thanks.
Return: 80.9

Enquiry: Need apparent KD of MS2 coat protein of CUCGUGCAGCUUUGCUGUACGAGUACAUGAGGAUCACCCAUGUAGGAUAUGGUACGCUUUGCGUGCUAGAAGGACGUGUGUAUG [JL EXNG3 1.39] (Eterna round: R96, puzzle: Exclusion NG 3) , thanks.
Return: 29

Enquiry: Need apparent KD of MS2 coat protein of AAAAAGGCAGGAUAUACGAGUCAAAGAAAAGACAAAAAGGGACAUGAGGAUCACCCAUGUAGAAGGGCCAAAAA [Fiskers exclusion D2 62% 4] (Eterna round: R96, puzzle: Exclusion 2) , thanks.
Return: 31.9
